Value source: patent US20200040059A1

Form field: MFI at 50 nM (one value per entry).
measuredTarget: PD-1 (Homo sapiens (Human)) (UniProt Q15116)
Sequence (Q15116 21-288 limits assumed): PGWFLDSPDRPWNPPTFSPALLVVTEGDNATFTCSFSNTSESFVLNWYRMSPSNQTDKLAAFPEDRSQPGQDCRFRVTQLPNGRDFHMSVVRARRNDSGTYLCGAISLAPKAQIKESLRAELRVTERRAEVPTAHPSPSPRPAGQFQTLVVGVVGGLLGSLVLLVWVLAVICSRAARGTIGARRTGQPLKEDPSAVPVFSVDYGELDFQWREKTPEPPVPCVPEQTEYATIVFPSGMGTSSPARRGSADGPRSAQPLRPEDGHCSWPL
testProtocol: flow cytometry, Jurkat/PD-1 cells
Keep it simple and answer with nothing but the number.

binder: variant PD-L2 IgV-Fc H15Q, T47A, Q72H, R76G (Fc fusion, not shown: a dimerising Fc or GST; small tags and cut ends) LFTVTVPKELYIIEQGSNVTLECNFDTGSHVNLGAITASLQKVENDASPHRERATLLEEQLPLGKASFHIPHVQVGDEGQYQCIIIYGVAWDYKYLTLK
endpointLabel: MFI at 50 nM
reportedMeasurement: 16500

// recorded MFI at 50 nM for variant PD-L2 IgV-Fc H15Q (Fc fusion, not shown: a dimerising Fc or GST; small tags and cut ends) FTVTVPKELYIIEQGSNVTLECNFDTGSHVNLGAITASLQKVENDTSPHRERATLLEEQLPLGKASFHIPQVQVRDEGQYQCIIIYGVAWDYKYLTLK : 16000
